test system: HCT-15; assay: In vitro tumor cell proliferation, HCT-15; format: cell-based, human; conditions: Homo sapiens, HCT-15, HCT-15; read-out: In vitro Tumor Cell Proliferation (IC50, μM) Colon HCT-15
Counter-ions that a name gives are not always drawn.
property: IC50 (µM)

[
  {
    "molecule": "COc1ccc(CNc2nc(N[C@H]3CC[C@H](N)CC3)nc3c2ncn3C2CCCC2)cc1OC [Example 34, dihydrochloride]",
    "IC50 (µM)": 7.7
  }
]

[1] COc1ccc(CNc2nc(N[C@H]3CC[C@H](N)CC3)nc3c2ncn3C2CCCC2)c(OC)c1 [Example 17, dihydrochloride]
[2] N[C@H]1CC[C@H](Nc2nc(NCc3ccc(C(F)(F)F)cc3)c3ncn(C4CCCC4)c3n2)CC1 [Example 1, dihydrochloride]
[3] N[C@H]1CC[C@H](Nc2nc(NCc3cccc(I)c3)c3ncn(C4C=CCC4)c3n2)CC1 (relative stereo) [Example 35, hydrochloride]
// sort entries: IC50, high to low Give your ranking as a list of the labels in the requested order.
1, 3, 2

---

test system: HT-29; test: In vitro tumor cell proliferation, HT-29; type: cell-based, human; conditions: HT-29; many values given with an undefined *; read-out: In vitro Tumor Cell Proliferation (IC50, μM) Colon HT-29
property: IC50 (µM)

[
  {
    "molecule": "COc1cccc(CN2CCC(Nc3nc(N[C@H]4CC[C@H](N)CC4)nc4c3ncn4C3CCCC3)CC2)c1",
    "reading": 0.32
  }
]

[a] N[C@H]1CC[C@H](Nc2nc(NC3CCN(Cc4c(Cl)cccc4Cl)CC3)c3ncn(C4CCCC4)c3n2)CC1
[b] N[C@H]1CC[C@H](Nc2nc(NC3CCN(Cc4cccc(Cl)c4)CC3)c3ncn(C4CCCC4)c3n2)CC1
For a and b , which recorded IC50 is lower? Respond using the label that marks the chosen record.
b
(b: 0.28 µM, a: 0.55 µM)

---

target: cdk2/cyclin E (Homo sapiens, UniProt P24941); construct: made in house; host or cells: insect cells (baculovirus co-infection); assay: Cyclin-Dependent Kinase 2 Assay (cdk2/cyclin E, GST-Rb substrate); assay type: biochemical; conditions: recombinant cdk2/cyclin E, 10 μM ATP, 30 min at 30° C., several values in a cell = separate determinations, read-out: CDK-2 Inhibition IC50
Where a name gives a salt, the structure may show the parent alone.
property: IC50 (nM)

Use the examples below as a reference point.
[
  {
    "compound": "N[C@H]1CC[C@H](Nc2nc(NCc3cccc4ccccc34)c3ncn(C4CCCC4)c3n2)CC1 [Example 7, dihydrochloride]",
    "tested_on": "cdk2/cyclin E (Homo sapiens, UniProt P24941)",
    "unit_abbreviation": "nM",
    "IC50": 160
  },
  {
    "compound": "CCCCCCCCCCCCNc1nc(N[C@H]2CC[C@H](N)CC2)nc2c1ncn2C1CCCC1 [Example 36, dihydrochloride]",
    "tested_on": "cdk2/cyclin E (Homo sapiens, UniProt P24941)",
    "unit_abbreviation": "nM",
    "IC50": 520
  },
  {
    "compound": "N[C@H]1CC[C@H](Nc2nc(NC3CCN(CC4CC4)CC3)c3ncn(C4CCCC4)c3n2)CC1 [Example 52]",
    "tested_on": "cdk2/cyclin E (Homo sapiens, UniProt P24941)",
    "unit_abbreviation": "nM",
    "IC50": 190
  }
]

[P] COCCOCCCNc1nc(N[C@H]2CC[C@H](N)CC2)nc2c1ncn2C1CCCC1 [Example 15, dihydrochloride]
[Q] N[C@H]1CC[C@H](Nc2nc(N[C@H]3CC[C@H](O)CC3)c3ncn(C4CCCC4)c3n2)CC1 [Example 145a, dihydrochloride]
For the two items P and Q , which reports the higher IC50 value? To answer, give the label that identifies your chosen option.
Q
(Q: 50 nM, P: 16 nM)
